A collection of substances and their measured median enrichment
Tested on: HEK293T
Assay: median enrichment of reporter reads in eGFP-reduced (low/intermediate) vs eGFP-high sorted cells (eGFP-extension fusion abundance) (ratio); higher = stronger loss of eGFP-fusion protein abundance (more destabilising extension)
Output: the number by itself.

| substance | tgt | median enrichment |
| --- | --- | --- |
| RQLQELNSLAPEELAAQEAKLAF [TMEM81] | HEK293T | 0.0302 |
| YKPQAPLADGRQGEKRRSSWTSETTVELRREAT [IGFL3] | HEK293T | 1.72 |
| RGAEGPMGEERRALLGKVGFLDPRDKLFRCHNVEESTWGTTVLVQVGLGKCTSLPLTPRQNPHPSLWILGKVPVPGEYPGPQT [IGHMBP2] | HEK293T | 5.61 |
| KKTSSR [LGALS2] | HEK293T | 0.594 |
| WAPLPPTPYQLQSGGFHAQMALGVTSSFACGP [TPGS2] | HEK293T | 10.1 |

Quick one: median enrichment of LKSKLVVLQLCVTFSPSAVSVQHLFHKCFVFSNTVFTTLLACICMFYTKAYTVLCEAIRSRKGIVNNIKHFYTKIICFVIRF [SLC44A5] ?
2.32

Fill blank: measured median enrichment of the substance SDGSAGTHCPPWLPLGGNPNRAPGGNPAPNPPQQGCTVSPLED [ATP13A1] is ____.
0.555

What does the data say about its median enrichment? Entry: WYHMFSWYVN [ABHD10]
5.5

====

System: HEK293T
Experiment: median enrichment of reporter reads in eGFP-reduced (low/intermediate) vs eGFP-high sorted cells (eGFP-extension fusion abundance) (ratio); higher = stronger loss of eGFP-fusion protein abundance (more destabilising extension)
Quick list: median enrichment per entry.
Answer as a number with no unit attached.

| substance | readout.value |
| --- | --- |
| CAPAERRLETGATASRVQQHSRHGSGRDSAWPRGTFPGQGPGGNWHGLVPLLCCILIPQPAPLGSDLSCPRAEPGGPEGEMNP [ANKRD13B] | 6.25 |
| QGPAPRTDSTRKPNDVPARRPRRAAFPLVLEKLEHPVTALFAMGTGTLFYTMLPPSPP [CARM1] | 3.47 |
| YKWQQNLTPRPANSASLVTLFWLLDGFHSSLGFVCEYCLLCFVFNCNG [OR7E24] | 6.78 |

Quick one: median enrichment for WNFENKI [RNASEH2B] ?
0.528

====

Test system: HEK293T
Assay: median enrichment of reporter reads in eGFP-reduced (low/intermediate) vs eGFP-high sorted cells (eGFP-extension fusion abundance) (ratio); higher = stronger loss of eGFP-fusion protein abundance (more destabilising extension)
Below, each entry is listed with its recorded median enrichment.
Please give the numeric answer without any surrounding text.

The examples below pair each entry with its known result.
| substance | readout.value |
| --- | --- |
| NNNNNNNNNN [Asn10] | 0.3 |
| KVCRSQ [KRTAP11-1] | 3.09 |
| CGLLPLGPLTLSGWWTTKYNPVYNLKIYFTFVLLYLFIKG [SMAD4] | 2.65 |

Could you now look at the following substance, please?
Observed median enrichment on HEK293T for WWWWWWWW [Trp08] , please.
4.57

====

System: HEK293T
Experiment: median enrichment of reporter reads in eGFP-reduced (low/intermediate) vs eGFP-high sorted cells (eGFP-extension fusion abundance) (ratio); higher = stronger loss of eGFP-fusion protein abundance (more destabilising extension)
Returns one of yes or no; yes when median enrichment is >= 4.

Answer whether median enrichment of LIPQPGLPVHLLTLLKSSIVVIL [CD46] is greater than or equal to 4.
yes

====

Test system: HEK293T
Assay: median enrichment of reporter reads in eGFP-reduced (low/intermediate) vs eGFP-high sorted cells (eGFP-extension fusion abundance) (ratio); higher = stronger loss of eGFP-fusion protein abundance (more destabilising extension)
measure.name: median enrichment

// worked examples, median enrichment included
| substance | tgt | measure.name | readout.value |
| --- | --- | --- | --- |
| QTLPFLFEFFRGKG [PCBD1] | HEK293T | median enrichment | 2.9 |
| YLEYIFV [CEP192] | HEK293T | median enrichment | 4.56 |
| QDLSIF [KCNJ13] | HEK293T | median enrichment | 0.364 |

Please examine the following record next.
I am curious: what median enrichment value has been reported for LKVSVNLQC [ZFR] ?
6.3

====

Test system: HEK293T
Assay: median enrichment of reporter reads in eGFP-reduced (low/intermediate) vs eGFP-high sorted cells (eGFP-extension fusion abundance) (ratio); higher = stronger loss of eGFP-fusion protein abundance (more destabilising extension)
measure.name: median enrichment
Provide a numeric answer; units are not to be included.

Use the examples below as a reference point.
| substance | measure.name | readout.value |
| --- | --- | --- |
| LTRKCCCPSSTLRPGAG [FCHO1] | median enrichment | 7.02 |
| WRCRHPSPIIKST [CPS1] | median enrichment | 8.4 |
| SPWSLVPGARASPPFHQPHRPLRGWSPLPGHGGRIPLGWSRLEKLLCQVCSLSAIVTSLPRGGDHITKRNSPFSKG [TCF21] | median enrichment | 3.11 |
| QSQPQLMPSQSQPPVTPSQSQPRVTPSQSQPHVTPYRSKSGKQKQSVPIPKTVSRKGTLKK [ADAM29] | median enrichment | 0.14 |
| YQGPSQYPWRTREIAPYRQWRGVPSHRQEPEAQAAHPFQPSRTHTDGREGGHSMNYC [XYLT2] | median enrichment | 1.21 |

Endpoint output: median enrichment of YWENPLLVHLKTPNSTIICQEIKRTTP [PCP4] . Value?
13.6

What value of median enrichment has been reported for the following substance? YQAQLQKDLTCAHKILL [LCN6]
7.65

# get_value(readout='median enrichment', item= KLDLII [OR4S2] )
1.99

Given DDDDDDDDDD [Asp10] , state its recorded median enrichment.
0.433

Sample RGKRAPVRRKGRRFRDVGGHPSPSRPCWGHGSGGGDMGPRQTASPTEHLDSNSVPGGAPTPPFSVSSCLFFFIFITKFHSF [ZFP36L2] — what was its median enrichment?
5.27

Could you share which median enrichment value was measured for WRGLQGSLLWVPT [RNF152] ?
6.67

Which measured median enrichment value corresponds to QFLQDTVPLPFFDQLSLVASSLHKM [FCF1] ?
14.2

Dear colleague, I am looking for the recorded median enrichment of the following substance: CGIQRERGSGRGGPEWGRLEGYRPAWMT [SNCG]
3.44

Fill blank: measured median enrichment of the substance RKSNASRLSEA [VHLL] is ____.
0.269

====

System: HEK293T
Assay: median enrichment of reporter reads in eGFP-reduced (low/intermediate) vs eGFP-high sorted cells (eGFP-extension fusion abundance) (ratio); higher = stronger loss of eGFP-fusion protein abundance (more destabilising extension)
Classify on median enrichment using class 1 (below 4), class 2 (4 to below 10), class 3 (10 or more)

Known results for sequences:
| sequence.input | tgt | label |
| --- | --- | --- |
| SKRGHMESGGHLDD [PTGR1] | HEK293T | class 1 |
| SDASTGPSLFCPQP [HSPB8] | HEK293T | class 1 |
| WHLFPPCLPLPLFWGHPFPPWLSPLKVSPPLGAFLEPCVSEWSPHSIVPRVCPQTLHLALLGRN [SNRPA] | HEK293T | class 3 |

Consider now this further sequence.
State the class of the sequence shown: CDPCKWDSPPVHEAWLLQYLLVEELYSKMKRKNKQTNKKKHKKRKNTFLYLTMFFEYVFFL [RBFOX2]
class 1

====

Test system: HEK293T;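 further: lentiviral eGFP-IRES-mCherry reporter pool sorted by FACS 96 h post-transduction, gated on mCherry-high cells, Illumina read counts normalized per million, median across four biological replicates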
Test: median enrichment of reporter reads in eGFP-reduced (low/intermediate) vs eGFP-high sorted cells (eGFP-extension fusion abundance) (ratio); higher = stronger loss of eGFP-fusion protein abundance (more destabilising extension)
measure.name: median enrichment
Respond numerically, and do not add a unit to the figure.

The examples below pair each entry with its known result.
| substance | median enrichment |
| --- | --- |
| KNQGCFEGKGSLSYALLYHQDYILKRKSSM [GPR65] | 11.5 |
| YGSRRILTHRKGAHGTQVKEVLLARYGGSRL [SMYD4] | 5.15 |
| YDSNPDPGLIFQSPPSCGTASVC [NFKBID] | 4.34 |
| LGQAAPVLGEGG [DEPDC5] | 1.71 |
| RAGVCWHRQPPLWALGGPLKGSPTRGPDESFLSGVGSQRGSPPAAWGRAWPGRVIQRVCQPLTGSPSVAATRSTELLQPRGQL [FAM53B] | 6.39 |

Dear colleague, I am looking for the recorded median enrichment of the following substance: HTTGQGCGAGAIPAPFPGPRGLGSLPSHPGLVPPGAPTVEIRRGWNGGRGGAGGPHPSAALGLGPHPSGGPEAGGGNPRGWLF [GNB2]
0.37

Requested read-out: median enrichment. Entry: WKLYMLRDVLLSGSIELPLSVNFKV [PDCD10]
11

# lookup: median enrichment of SCPSFGNILF [RNASET2]
0.362

Sample RQTSQSSQPGLHPPWLPPAHMAPSTGLQPGAREL [HOOK2] — what was its median enrichment?
11.1

Please give the measured median enrichment for this substance: RICKRRRHDVLCLH [MED12L]
13.4

Query (substance): YGRWEVSSLSLACSSSWT [REG3G] ; field requested: median enrichment
6.24

Find the recorded median enrichment belonging to RDASTGPSLFCPQP [HSPB8] and report it.
0.453

So what's the measured median enrichment for this one? RCKPPYESTVADRRRGGCCSCRSINMCCMSFLLFF [LMO7]
22.4

Requested field: median enrichment. Item: KPKEVPGTVSDLERSQKENNIIK [CELA2A]
0

Which median enrichment value belongs to CPVPARQKEQCQPHQDRWGFESALIWVCLGAPA [SLC37A3] ?
5.61

Return reported median enrichment; argument: YGDFPVQ [GPALPP1]
0.42

Given the substance WWPRIPIEQHKARLG [RNF216] , what is its reported median enrichment?
26.7

Look up median enrichment for this substance: YGREARAAPAFLLQIWAAVARAVSPVAEPSGRCGNRRSSVAPVS [CPTP]
7

Recorded median enrichment for KHHQSVKGLCGMQEFQTHGQSGLFFLVLRASSEHRSHIAAHREGWNEKWKRGSTFLLGDMNHLCSYYVIRNLVAWPYLAAREP [CFAP61] , please?
4.22

Field request: median enrichment | item: SESTGSSQTYRCPAR [FAM221B]
0.476

Quick one: median enrichment for YQVIAEQMNRPPASVANTRSISLGQWTNT [LCP2] ?
2.43

Fill in: median enrichment of CSSVYELPFHSAFRNYILAFIFNLPTYFK [ATM] is ___
8.5
